# ASSAYED_TARGET: RORc ligand binding domain (Homo sapiens, UniProt P51449)
# Construct: host or cells: E. coli
# Sequence (P51449 269-508 limits assumed, species assumed): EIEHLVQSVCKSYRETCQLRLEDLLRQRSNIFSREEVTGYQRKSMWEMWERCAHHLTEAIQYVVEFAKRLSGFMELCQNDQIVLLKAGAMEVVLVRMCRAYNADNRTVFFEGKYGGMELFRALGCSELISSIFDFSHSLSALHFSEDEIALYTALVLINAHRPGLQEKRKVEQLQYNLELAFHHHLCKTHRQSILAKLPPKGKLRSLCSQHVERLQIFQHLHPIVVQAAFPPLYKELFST
# ASSAY_TEXT: In Vitro RORc Ligand Binding Assay (25-[3H]hydroxycholesterol radioligand filtration)
# COND: In Vitro RORc Ligand Binding Assay; Table 4; read-out: RORc IC50
READOUT_KIND: pIC50
API: returns pIC50 as number; meaning -log10 of concentration in mol/L.

Example molecules with recorded pIC50:
molecule="CC(=O)N1CCN(c2ccc(CN3CC4(CC4)CC(c4ccccc4)S3(=O)=O)c(F)c2)CC1 (single isomer, unassigned) [Example 199]" assayed_target="RORc ligand binding domain (Homo sapiens, UniProt P51449)" readout_kind=pIC50 readout_number=7.85
molecule="CC(=O)N1CCN(c2ccc(CN3[C@H](C)CCC(c4ccccc4)S3(=O)=O)cn2)CC1 (single isomer, unassigned) [Example 48]" assayed_target="RORc ligand binding domain (Homo sapiens, UniProt P51449)" readout_kind=pIC50 readout_number=5.82
molecule="CC(=O)NCCC1CCN(C(=O)c2ccc(CN3[C@@H](C)CCC(c4ccccc4)S3(=O)=O)cc2)CC1 (stereo partly drawn)" assayed_target="RORc ligand binding domain (Homo sapiens, UniProt P51449)" readout_kind=pIC50 readout_number=5.69
molecule="COc1cc(CN2[C@@H](C)CCC(c3ccccc3)S2(=O)=O)ccc1N1CCN(C(C)=O)CC1 (single isomer, unassigned) [Example 162]" assayed_target="RORc ligand binding domain (Homo sapiens, UniProt P51449)" readout_kind=pIC50 readout_number=6.09
molecule="C[C@H]1CCC(c2ccccc2)S(=O)(=O)N1Cc1ccc(C(=O)NC2CN(C(N)=O)C2)cc1 (stereo partly drawn)" assayed_target="RORc ligand binding domain (Homo sapiens, UniProt P51449)" readout_kind=pIC50 readout_number=5.26

Exercise: # value lookup — system RORc ligand binding domain (Homo sapiens, UniProt P51449), readout pIC50, item C[C@H]1CCC(c2ccccc2)S(=O)(=O)N1Cc1ccc(OC2CCN(S(C)(=O)=O)CC2)cc1 (single isomer, unassigned) [Example 45]
Solution: 7.66
